B1: Syntaxin-binding protein 4, residues 493 to 538; numbered along this chain, Q6ZWJ1 (parent)
chain: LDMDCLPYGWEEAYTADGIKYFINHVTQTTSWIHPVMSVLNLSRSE

Variants of: B1
Experiment: abundance fitness (aPCA) (normalised: wild type 0, dead -1); higher = more abundant; growth selection in yeast, the domain comes from the species named
Details: Homo sapiens
// abundance fitness lookup, one value per entry
property: abundance fitness

variant.key	readout.number
Y21R	-0.962
F22P	-0.895
N24F	-0.835
L6K	-0.266
K20G	-0.857
T27G	-0.248
Y21F	-0.91
V39G	0.352
L42P	-0.304
I19C	0.348
N24H	-0.282
A13L	-0.742
Y14M	-0.614
G9A	-0.803
D17V	-0.648
M3H	-0.117
R44W	-0.527
G18H	-0.862
Y8S	0.138
W10N	-0.615
T15S	-0.672
R44G	0.377
W32L	-0.49
V26D	-0.087
D2K	-0.269
S31P	-0.788
L40K	0.041
M37H	-0.15
D2P	-0.985
V39H	-0.263
R44K	-0.162
V36Q	0.391
T30D	-0.859
T30R	-0.719
L40Q	0.046
T15V	-0.862
C5E	0.234
D4C	-0.354
N41K	-0.635
P35R	-0.88
S45F	-0.759
S38W	-0.264
D4F	-0.613
C5A	0.238
P35V	-0.882
L6W	-0.922
I19A	0.708
V36K	0.746
W10L	-0.844
A13W	-0.766
V39C	-0.134
W32Q	-0.86
Q28D	-0.467
D4V	-0.766
Y14W	-0.271
Q28F	-0.422
Q28R	-0.316
G9I	-0.459
D17G	-0.76
G18E	-0.681
P35S	-0.661
E11S	-0.433
T27A	-0.513
M37G	0.059
A13Y	-0.914
T29C	0.271
E12D	-0.89
A13G	-0.746
L1K	0.331
S43Q	-0.732
F22C	-0.659
D17M	-0.88
I23T	-0.786
V36Y	-0.254
F22M	-0.44
L42C	0.025
D4N	-0.098
S45Q	-0.32
S43C	-0.518
Q28M	0.031
A16Q	-0.182
K20M	-0.848
C5S	0.142
G18W	-0.493
A16I	-0.716
T27R	-0.234
M3F	-0.069
V26A	0.058
G9F	-0.926
V26T	0.168
W32N	-0.342

All figures here come from the Human Domainome abundance scans (Beltran et al. 2025).
